- Test system: Peptostreptococcus micros (GIFU 7824)
Form field: MIC90 (one value per entry).
# output: bare number, implied unit µg/mL

compound	experimental.target	endpoint	measurement
CC1CCc2c(N3CCC(O)CC3)c(F)cc3c(=O)c(C(=O)O)cn1c23 (stereo not shown)	Peptostreptococcus micros (GIFU 7824)	MIC90	0.39
NC1CCCCN(c2c(F)cc3c(=O)c(C(=O)O)cn(C4CC4)c3c2Cl)C1 (stereo not shown)	Peptostreptococcus micros (GIFU 7824)	MIC90	0.2

Per the records, this compound ( C[C@@H]1CN(c2c(F)c(N)c3c(=O)c(C(=O)O)cn(C4CC4)c3c2F)C[C@H](C)N1 ) has MIC90 equal to 0.78

MIC90 in this record for CC1COc2c(N3CCN(C)CC3)c(F)cc3c(=O)c(C(=O)O)cn1c23 (stereo not shown) : 0.78

###

- Tested on: Clostridium perfringens (KZ 210)
- assay.name: microbe, parasite or virus in culture
- Format: cell-based
endpoint: MIC90 (µg/mL)
Output spec: scalar in µg/mL, unitless text.

compound	MIC90 (µg/mL)
C[C@@H]1CN(c2c(F)c(N)c3c(=O)c(C(=O)O)cn(C4CC4)c3c2F)C[C@H](C)N1 [Sparfloxacin]	0.39
NC1CCCCN(c2c(F)cc3c(=O)c(C(=O)O)cn(C4CC4)c3c2Cl)C1 (stereo not shown) [Compound Having Formula III]	0.2

MIC90 reported for this compound CC1COc2c(N3CCN(C)CC3)c(F)cc3c(=O)c(C(=O)O)cn1c23 (stereo not shown) [Ofloxacin] : 0.78

MIC90 measured on CC1CCc2c(N3CCC(O)CC3)c(F)cc3c(=O)c(C(=O)O)cn1c23 (stereo not shown) [Nadifloxacin] = 0.2

###

# Bacteroides fragillis (GAI 0675): MIC90 values follow
Could you give me the number in µg/mL? Just the number is fine.

See these solved cases before continuing.
compound	measurement.units	MIC90
C[C@@H]1CN(c2c(F)c(N)c3c(=O)c(C(=O)O)cn(C4CC4)c3c2F)C[C@H](C)N1 [Sparfloxacin]	µg/mL	0.78
CC1CCc2c(N3CCC(O)CC3)c(F)cc3c(=O)c(C(=O)O)cn1c23 (stereo not shown) [Nadifloxacin]	µg/mL	1.56
NC1CCCCN(c2c(F)cc3c(=O)c(C(=O)O)cn(C4CC4)c3c2Cl)C1 (stereo not shown) [Compound Having Formula III]	µg/mL	0.1

Turning now to a further record.
CC1COc2c(N3CCN(C)CC3)c(F)cc3c(=O)c(C(=O)O)cn1c23 (stereo not shown) [Ofloxacin] yielded MIC90 of 1.56

###

- Test system: Sarcina lutea (ATCC 9341)
- assay.name: In vitro anti-bacterial activity (MIC90), Gram-positive reference strains
- Type: cell-based
- assay.context: Micrococcus luteus, ATCC9341
Readings of MIC90 for the listed compounds
Note: unit µg/mL is implicit; provide only the numeric part.

These solved cases illustrate the format of a correct answer.
compound	experimental.target	measurement.units	MIC90
CC1CCc2c(N3CCC(O)CC3)c(F)cc3c(=O)c(C(=O)O)cn1c23 (stereo not shown) [Nadifloxacin]	Sarcina lutea (ATCC 9341)	µg/mL	0.39
CC1COc2c(N3CCN(C)CC3)c(F)cc3c(=O)c(C(=O)O)cn1c23 (stereo not shown) [Ofloxacin]	Sarcina lutea (ATCC 9341)	µg/mL	3.13
C[C@@H]1CN(c2c(F)c(N)c3c(=O)c(C(=O)O)cn(C4CC4)c3c2F)C[C@H](C)N1 [Sparfloxacin]	Sarcina lutea (ATCC 9341)	µg/mL	1.56

// switching to the query compound
// NC1CCCCN(c2c(F)cc3c(=O)c(C(=O)O)cn(C4CC4)c3c2Cl)C1 (stereo not shown) [Compound Having Formula III] : MIC90 value = 0.1
